Hello, the source for this data is patent US20100280031A1, in case you need it.

# experimental_details: PK study of ABT-737 formulations in rats
# Assay type: in vivo, Sprague-Dawley rats
# applied_conditions: Sprague-Dawley, rat, plasma, po, 5 mg/kg, rats, 5 mg/kg oral; carrier Phosal 50 PG/ethanol (90:10); 50 mg/ml
# Experimental: Serial heparinized blood samples were obtained from a tail vein of each animal prior to dosing and 0.25, 0.5, 1, 1.5, 2, 3, 4, 6, 8 and 24 hours after administration. Analysis was performed on a Sciex API3000™ biomolecular mass analyzer with a heated nebulizer interface. ABT-737 and internal standard peak areas were determined using Sciex MacQuan™ software. […]
readout_name: AUC(0-inf) (ng·h/mL)
Please give a number only; it is taken to be in ng·h/mL.

Which AUC(0-inf) value belongs to CN(C)CC[C@H](CSc1ccccc1)Nc1ccc(S(=O)(=O)NC(=O)c2ccc(N3CCN(Cc4ccccc4-c4ccc(Cl)cc4)CC3)cc2)cc1[N+](=O)[O-] ?
60
